experiment: P-glycoprotein substrates identified in KB-8-5-11 adenocarcinoma cell line, qHTS therapeutic library screen (AID 1346987); conditions: KB-8-5-11 (P-gp overexpressing) viability, CellTiter-Glo, 72 h; series mostly up to 44.5 µM; further: nearly all actives have a fitted effect of over 65% in size; on activity change, negative = cytotoxicity: on the % scale 0 is the no-effect control and ±100 the full control effect
Inconclusive results are not listed. Active and inactive are the calls of the source. The call rests on the fitted dose curve; in most records, active means well fitted inhibition curve with a large enough effect; inconclusive means small, poorly fitted or top-dose-only effect; inactive means flat fitted curve, though single readings scatter. Where a SMILES comes first, the peptide text is derived from it. The star is where a group is joined. Cbz = O=C(OCc1ccccc1)*; CH2F = FC*
Measurement Kind: activity change, negative = cytotoxicity

>  <Molecule>
O=C(/C=C/c1ccc(O)cc1)OC[C@H]1O[C@H](O[C@@]2(CO)O[C@@H](CO)[C@H](O)[C@H]2O)[C@H](O)[C@@H](O)[C@@H]1O

>  <activity change, negative = cytotoxicity>
inactive

$$$$
>  <Molecule>
C=Cc1cc2oc(-c3ccc(O)c(F)c3)nc2cc1O

>  <activity change, negative = cytotoxicity>
inactive

$$$$
>  <Molecule>
O=C(OC(C(F)(F)F)C(F)(F)F)N1CCN(Cc2cccc(Oc3ccccc3)c2)CC1

>  <activity change, negative = cytotoxicity>
inactive

$$$$
>  <Molecule>
CS(=O)(=O)c1ccccc1N1CCN(c2nc3c(c(=O)[nH]2)CSCC3)CC1

>  <activity change, negative = cytotoxicity>
inactive

$$$$

Prompt: Returns the measured activity change, negative = cytotoxicity for the input molecule. Input: CC1(C)CC[C@]2(C(=O)O[C@@H]3O[C@H](CO)[C@@H](O)[C@H](O)[C@H]3O)CC[C@]3(C)C(=CCC4[C@@]5(C)C[C@@H](O)[C@H](O)[C@@](C)(CO)C5[C@H](O)C[C@]43C)C2[C@@H]1O (stereo partly specified)
Response: inactive

Prompt: Also check COc1cc(/C=C/C(=O)OCC2OC(OC3(CO)OC(CO)C(O)C3O)C(O)C(O)C2O)ccc1O (stereo unspecified)
Response: inactive

Prompt: Let us now turn to C=C1Cc2c(Cl)cc3[nH]c4c5c3c2[C@@]2(O)[C@@H]1C[C@@H]2C(C)(C)O[C@H]5C1CC[C@@]2(O)[C@@]35O[C@@H]3[C@H]3OC(C)(C)[C@H]3O[C@H]5CC[C@]2(C)[C@@]41C (stereo partly specified)
Response: inactive

Prompt: Consider next the molecule CC(=O)OC1CC(=O)C2(C)C3CC4=C(OC(C)CC4=O)OC3(C)CCC2C1(C)C (stereo unspecified) in the same way.
Response: inactive

Prompt: // next record C=C(CC/C=C(\C)C(=O)O)C1(O)CC=C(C)CC1 (stereo unspecified)
Response: inactive

Prompt: Check "O=C(Cc1ccccc1)OC[C@H]1O[C@H](O[C@H]2O[C@H](CO)[C@@H](O)[C@H](O)[C@H]2O)[C@H](O)[C@@H](O)[C@@H]1O" too.
Response: inactive

Prompt: Same question for "C/C=C/C=C/C=C/C(=O)O[C@@H]1C=C(CO)[C@](O)(CO)[C@@]2(C)CCCC(C)(C)[C@H]12" please.
Response: inactive

Prompt: Record: OC[C@@]1(O)CO[C@H](OC[C@H]2O[C@@H](OC(CCCCc3ccc(O)cc3)CCc3ccc(O)cc3)[C@H](O[C@H]3OC[C@](O)(CO)[C@H]3O)[C@@H](O)[C@@H]2O)[C@@H]1O (stereo partly specified)
Response: inactive

Prompt: Next: CC12CC(c3ccoc3)OC(=O)C1CCC1(C)C2CCC(O)C1(C)O (stereo unspecified)
Response: inactive

Prompt: Same lookup for C[C@@H]1O[C@@H](O[C@H]2[C@H](OC(=O)[C@]34CCC(C)(C)C[C@H]3C3=CCC5[C@@]6(C)CC[C@H](O[C@@H]7O[C@H](CO[C@@H]8OC[C@H](O)[C@H](O)[C@H]8O[C@@H]8OC[C@@H](O)[C@H](O)[C@H]8O)[C@@H](O)[C@H](O)[C@H]7O)C(C)(C)C6CC[C@@]5(C)[C@]3(C)C[C@H]4O)O[C@H](CO)[C@@H](O)[C@@H]2O)[C@H](O[C@@H]2O[C@H](CO)[C@@H](O)[C@H](O)[C@H]2O)[C@H](O)[C@H]1O[C@@H]1OC[C@@H](O)[C@H](O[C@@H]2OC[C@@H](O)[C@H](O)[C@H]2O)[C@H]1O (stereo partly specified) , please.
Response: 9.58% [at 5.11 µM] (inactive)

Prompt: One more molecule: COC(=O)CC[C@H](NC(=O)[C@H](CC(C)C)NC(=O)OCc1ccccc1)C(=O)N[C@@H](Cc1cnc[nH]1)C(=O)N[C@@H](CC(=O)OC)C(=O)CF (Cbz-LE(OMe)HD(OMe)-CH2F)
Response: 6.58% [at 9.29 µM] (inactive)

Prompt: Cool, now COC(=O)C(Cc1ccccc1)NC(=O)c1ccccc1 (stereo unspecified)
Response: inactive

Prompt: Another molecule to look at: C[C@H]1CCN2C[C@]34C[C@@]5(C(=O)Nc6c5ccc5c6OC=CC(C)(C)O5)C(C)(C)C3C[C@]12C(=O)N4C (stereo partly specified)
Response: inactive

Prompt: C=C(CCO)C(=O)OCC1OCC(OC(=O)C(=C)CCO[C@@H]2O[C@H](CO)[C@@H](O)[C@H](O)[C@H]2O)C(O)C1O (stereo partly specified) ?
Response: inactive

Prompt: For "O=C(O)c1ccnc(-c2cc(C(=O)NCCc3ccccc3)ccn2)c1" then?
Response: inactive

Prompt: Another molecule: "CCOc1ccc(-c2nn3ncccc3c2-c2ccc(S(C)(=O)=O)cc2)cc1"
Response: inactive

Prompt: Another molecule to check: "Cc1cccc(NC(=O)CN2CCC(c3ccccn3)CC2)c1"
Response: inactive

Prompt: Would you mind doing C[C@H]1[C@H](C)CC[C@]2(C(=O)OC3OC(CO)C(O)C(O)C3O)CC[C@]3(C(=O)O)C(=CCC4[C@@]5(C)CC[C@H](O[C@@H]6O[C@@H](C)[C@H](OC7OC(CO)C(O)C(O)C7O)[C@@H](O)[C@H]6O)C(C)(C)C5CC[C@]43C)[C@H]12 (stereo partly specified) as well?
Response: -1.84% [at 9.29 µM] (inactive)
